molecular target: T1, human glypican-3 (GPC3) (human, UniProt P51654 25-554); experiment: flow cytometry on JHH-7 cells; antibody in mouse plasma, day 0
T1 construct: Endogenous on JHH-7, JHH-5, HepG2 and NCI-H446 tumour cells, or transiently expressed on CHO-S cells from a pTT5 plasmid; also called hGPC3; huGPC3
For each of the binders below, state its Bmax (MFI).
Quick note: give the figure in MFI, leave out the unit.

Quote Bmax (MFI) reported for H18L6_LC_G34K mAb, v40207 (antibody, human IgG1, kappa, V domains shown, Full-size IgG1/kappa) VH: QVQLVQSGAEVKKPGSSVKVSCKASGYTFTDYEMHWVKQAPGHGLEWIGAIDPETGDTAYNQKFKGKATLTADTSTSTAYMELSSLRSEDTAVYYCTRYFSFAYWGQGTLVTVSS VL: EIVLTQSPATLSLSPGERATISCRSSQSLRHSNKNTYLQWYQQKPGQAPRLLIYKVSNRFSGVPARFSGSGSGTDFTLTISSLEPEDFAVYFCYQSKHVPYTFGGGTKVEIKR please.
9620

Quote Bmax (MFI) reported for H18L6_LC_G34R mAb, v40206 (antibody, human IgG1, kappa, V domains shown, Full-size IgG1/kappa) VH: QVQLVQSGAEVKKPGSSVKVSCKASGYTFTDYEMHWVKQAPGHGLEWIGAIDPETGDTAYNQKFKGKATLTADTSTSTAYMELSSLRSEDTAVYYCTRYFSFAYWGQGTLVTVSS VL: EIVLTQSPATLSLSPGERATISCRSSQSLRHSNRNTYLQWYQQKPGQAPRLLIYKVSNRFSGVPARFSGSGSGTDFTLTISSLEPEDFAVYFCYQSKHVPYTFGGGTKVEIKR please.
9390

Quote Bmax (MFI) reported for H18L6_LC_G34A mAb, v40212 (antibody, human IgG1, kappa, V domains shown, M3-H18L6 chains with the stated light chain point mutation, IgG1/kappa) VH: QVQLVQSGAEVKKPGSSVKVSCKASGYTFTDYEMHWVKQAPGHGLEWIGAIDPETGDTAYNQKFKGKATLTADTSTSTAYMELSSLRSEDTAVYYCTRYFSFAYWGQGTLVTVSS VL: EIVLTQSPATLSLSPGERATISCRSSQSLRHSNANTYLQWYQQKPGQAPRLLIYKVSNRFSGVPARFSGSGSGTDFTLTISSLEPEDFAVYFCYQSKHVPYTFGGGTKVEIKR please.
8360

Quote Bmax (MFI) reported for H18L6_LC_G34E mAb, v40204 (antibody, human IgG1, kappa, V domains shown, M3-H18L6 chains with the stated light chain point mutation, IgG1/kappa) VH: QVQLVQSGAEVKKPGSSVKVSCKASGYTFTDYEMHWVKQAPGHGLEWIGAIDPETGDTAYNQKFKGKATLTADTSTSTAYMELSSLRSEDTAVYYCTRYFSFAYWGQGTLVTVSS VL: EIVLTQSPATLSLSPGERATISCRSSQSLRHSNENTYLQWYQQKPGQAPRLLIYKVSNRFSGVPARFSGSGSGTDFTLTISSLEPEDFAVYFCYQSKHVPYTFGGGTKVEIKR please.
8500
